Assay: Cytotoxicity against mouse RAW264.7 cells assessed as cell viability at 20 ug/ml after 24 hrs by MTT assay
Type: cell-based
Settings: read-out: Activity
Reported viability at 24 h, 20 ug/ml values for the following compounds.
Note: unit % is implicit; provide only the numeric part.

C=C(C)[C@@H]1CC[C@]2(C(=O)O)CC[C@]3(C)[C@H](CC[C@@H]4[C@@]5(C)CC[C@H](O)C(C)(C)[C@@H]5CC[C@]43C)[C@@H]12 | 60.3

COc1cc([C@H]2c3cc(O)c(OC)cc3C[C@@H](CO)[C@@H]2CO[C@@H]2O[C@@H](C)[C@H](O)[C@@H](O)[C@H]2O)ccc1O has a reported viability at 24 h, 20 ug/ml of 112

O=C1c2c(O)cc(O)cc2O[C@H](c2ccc(O)c(O)c2)[C@H]1O[C@@H]1O[C@H](CO)[C@@H](O)[C@H](O)[C@H]1O has a reported viability at 24 h, 20 ug/ml of 101

O=C1c2c(O)cc(O)cc2O[C@@H](c2ccc(O)c(O)c2)[C@@H]1O[C@@H]1O[C@H](CO)[C@@H](O)[C@H](O)[C@H]1O has a reported viability at 24 h, 20 ug/ml of 105

O=C1c2c(O)cc(O)cc2O[C@H](c2ccc(O)c(O)c2)[C@@H]1O[C@@H]1OC[C@@H](O)[C@H](O)[C@H]1O has a reported viability at 24 h, 20 ug/ml of 108

O=C1c2c(O)cc(O)cc2OC(c2ccc(O)c(O)c2)C1O[C@@H]1OC[C@@H](O)[C@H](O)[C@H]1O (single isomer, unassigned) has a reported viability at 24 h, 20 ug/ml of 107

* * *

Test: Cytotoxicity against mouse RAW264.7 cells assessed as cell viability at 20 ug/ml after 24 hrs by MTT assay
Type: cell-based
Conditions: read-out: Activity
Reported viability at 24 h, 20 ug/ml values for the following compounds.
Note: unit % is implicit; provide only the numeric part.

Some solved cases for reference:
COc1cc2c(c(OC)c1O)[C@H]1c3c(cc(OC)c(O)c3OC)OC[C@@H](C2)[C@H]1CO[C@@H]1O[C@H](CO)[C@@H](O)[C@H](O)[C@H]1O | 110
O=c1c(O[C@@H]2O[C@H](CO)[C@@H](O)[C@H](O)[C@H]2O)coc2cc(O)cc(O)c12 | 105
COc1cc([C@@H]2c3c(cc(OC)c(O)c3OC)C[C@H](CO)[C@H]2CO[C@@H]2O[C@H](CO)[C@@H](O)[C@H](O)[C@H]2O)cc(OC)c1O | 104
O=c1c(O[C@@H]2OC[C@H](O)[C@H](O)[C@H]2O)coc2cc(O)cc(O)c12 | 106
O=c1c(O[C@@H]2OC[C@@H](O)[C@H](O)[C@H]2O)coc2cc(O)cc(O)c12 | 102

COc1cc2c(c(OC)c1O)[C@@H]1c3c(cc(OC)c(O)c3OC)OC[C@H](C2)[C@@H]1CO[C@@H]1O[C@H](CO)[C@@H](O)[C@H](O)[C@H]1O has a reported viability at 24 h, 20 ug/ml of 106

O=C1c2c(O)cc(O)cc2O[C@H](c2ccc(O)c(O)c2)[C@H]1O[C@@H]1OC[C@@H](O)[C@H](O)[C@H]1O has a reported viability at 24 h, 20 ug/ml of 105

O=C1c2c(O)cc(O)cc2O[C@@H](c2ccc(O)c(O)c2)[C@H]1O[C@@H]1OC[C@@H](O)[C@H](O)[C@H]1O has a reported viability at 24 h, 20 ug/ml of 102

COc1cc([C@H]2c3c(cc(OC)c(O)c3OC)C[C@@H](CO[C@@H]3O[C@H](CO)[C@@H](O)[C@H](O)[C@H]3O)[C@@H]2CO)cc(OC)c1O has a reported viability at 24 h, 20 ug/ml of 101
